Assignment: determine reported glycan array binding signal (z-score) for the given binders.
target: Fuc(a1-2)[Gal(a1-4)]Gal(b1-4)GlcNAc; assay: glycan array binding signal (z-score within array); higher = stronger binding; conditions: glycan notation: IUPAC condensed, linker removed
The full list was thinned out, with the strongest signals kept by preference.
Give a plain numeric answer without units written out.

Any idea what glycan array binding signal (z-score) was measured for Clone646PsrP (Streptococcus pneumoniae) (protein) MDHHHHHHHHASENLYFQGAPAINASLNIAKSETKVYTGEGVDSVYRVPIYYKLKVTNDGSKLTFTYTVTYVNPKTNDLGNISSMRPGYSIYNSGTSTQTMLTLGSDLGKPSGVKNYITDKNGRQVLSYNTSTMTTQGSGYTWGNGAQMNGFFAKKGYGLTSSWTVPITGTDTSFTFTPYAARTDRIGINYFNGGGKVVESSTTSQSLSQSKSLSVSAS ?
0.495

Now consider AFCNVH (Aspergillus fumigatus) (protein) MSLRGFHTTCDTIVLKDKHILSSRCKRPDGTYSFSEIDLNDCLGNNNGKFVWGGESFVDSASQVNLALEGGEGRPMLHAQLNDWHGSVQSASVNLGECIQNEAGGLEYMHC .
0.231

Now consider PA-IL (Pseudomonas aeruginosa), Q05097 (protein) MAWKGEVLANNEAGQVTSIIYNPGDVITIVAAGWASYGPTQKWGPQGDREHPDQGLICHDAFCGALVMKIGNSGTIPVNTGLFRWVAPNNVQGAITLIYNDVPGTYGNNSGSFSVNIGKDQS .
5.44

This collection of values is drawn from the supplement of paper PMC8728848.
